Listed here: items and their measured IC50.
target: ferroportin (Fpn) (Mus musculus, UniProt Q9JHI9); construct: host or cells: J774 mouse macrophage cell line, Fe(III)-NTA induced; assay: Hepcidin Internalization Assay (J774); assay type: cell-based; settings: average of multiple measurements; inhibition of TMR-hepcidin (25 nM) internalization into J774 cells; read-out: J774 IC50
Sequence (Q9JHI9 whole entry): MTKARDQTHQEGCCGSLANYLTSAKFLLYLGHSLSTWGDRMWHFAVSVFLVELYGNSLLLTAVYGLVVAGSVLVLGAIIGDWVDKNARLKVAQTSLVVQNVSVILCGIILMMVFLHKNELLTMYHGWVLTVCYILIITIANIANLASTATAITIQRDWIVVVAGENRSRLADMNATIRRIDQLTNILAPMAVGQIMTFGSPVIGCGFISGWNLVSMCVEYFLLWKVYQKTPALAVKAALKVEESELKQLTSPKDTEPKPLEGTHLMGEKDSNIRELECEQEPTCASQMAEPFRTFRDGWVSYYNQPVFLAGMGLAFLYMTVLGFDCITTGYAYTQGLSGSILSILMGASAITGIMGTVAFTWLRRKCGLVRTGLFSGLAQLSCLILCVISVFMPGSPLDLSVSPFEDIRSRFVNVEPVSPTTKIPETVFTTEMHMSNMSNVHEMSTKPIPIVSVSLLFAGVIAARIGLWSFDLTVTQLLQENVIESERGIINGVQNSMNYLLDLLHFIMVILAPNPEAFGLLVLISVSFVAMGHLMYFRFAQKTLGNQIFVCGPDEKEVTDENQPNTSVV
Kindly provide the numeric value in nM only, without the unit symbol.

Quick one: IC50 of O=C(NCc1ncccc1F)c1coc(CCNCCc2nc3ccccc3[nH]2)n1 ?
9

* * *

target: ferroportin (Fpn) (Mus musculus, UniProt Q9JHI9); construct: host or cells: J774 mouse macrophage cell line, Fe(III)-NTA induced; test: Hepcidin Internalization Assay (J774); format: cell-based; settings: average of multiple measurements; inhibition of TMR-hepcidin (25 nM) internalization into J774 cells; read-out: J774 IC50
Measured attribute: log10(IC50) (log10 of the value in nM)
Please keep in mind that the values are log10 of IC50 expressed in nM.

Consider the reported log10(IC50) for these compounds:
Cc1ccc(CNC(=O)c2csc(CCNCCc3nc4ccccc4[nH]3)n2)nn1 2.15
O=C(NCc1cccnn1)c1csc(CCNCc2nc3ccccc3[nH]2)n1 2.28
O=C(NCc1ccccc1)c1csc(CCNCc2nc3cccnc3[nH]2)n1 3.56
O=C(NCc1ncccc1Cl)c1csc(C2CN(CCc3nc4ccccc4[nH]3)C2)n1 2.32

Consider the additional compound presented here.
Suppose we examine the compound O=C(NCc1ncc(F)cc1F)c1csc(CNCCCc2nc3ccccc3[nH]2)n1 ; what log10(IC50) value has been reported?
3.80

* * *

target: human Fpn-GFP fusion (Homo sapiens, UniProt Q9NP59); construct: expressed in transfected cells; host or cells: HEK-293 cell line #354 (derivative of HEK-293 Tet-ON Advanced, Clontech); assay: Inhibition of ferroportin mediated iron export activity in an iron response assay (BLAzer); type: cell-based; settings: average of multiple measurements; HEK-293 cell line #354; read-out: BLAzer EC50
Note to self: EC50 under 4 µM means 1, ties and anything higher get 0.

Completed entries (count: 3):
O=C(NCc1ncccc1F)c1coc(C2CN(CCc3nc4c(F)cccc4[nH]3)C2)n1 1
O=C(NCC1CCCCC1)c1csc(CCNCc2nc3ccccc3[nH]2)n1 0
O=C(NCc1ncccc1F)c1cccc(CNCCc2nc3ccccc3[nH]2)c1 0

Strictly below 4 µM in EC50? Cc1cc(C)c(CNC(=O)c2csc(CCNCc3nc4ccccc4[nH]3)n2)cn1
1

* * *

biological target: human Fpn (Homo sapiens); construct: FLAG (C); made in house; host or cells: Pichia pastoris; assay: Biophysical Ferroportin-Hepcidin Binding Assay (fluorescence polarization); details: average of multiple measurements; 1 μM human Fpn, 20 nM TMR-hepcidin; read-out: FP IC50
Sequence (Q9NP59 whole entry): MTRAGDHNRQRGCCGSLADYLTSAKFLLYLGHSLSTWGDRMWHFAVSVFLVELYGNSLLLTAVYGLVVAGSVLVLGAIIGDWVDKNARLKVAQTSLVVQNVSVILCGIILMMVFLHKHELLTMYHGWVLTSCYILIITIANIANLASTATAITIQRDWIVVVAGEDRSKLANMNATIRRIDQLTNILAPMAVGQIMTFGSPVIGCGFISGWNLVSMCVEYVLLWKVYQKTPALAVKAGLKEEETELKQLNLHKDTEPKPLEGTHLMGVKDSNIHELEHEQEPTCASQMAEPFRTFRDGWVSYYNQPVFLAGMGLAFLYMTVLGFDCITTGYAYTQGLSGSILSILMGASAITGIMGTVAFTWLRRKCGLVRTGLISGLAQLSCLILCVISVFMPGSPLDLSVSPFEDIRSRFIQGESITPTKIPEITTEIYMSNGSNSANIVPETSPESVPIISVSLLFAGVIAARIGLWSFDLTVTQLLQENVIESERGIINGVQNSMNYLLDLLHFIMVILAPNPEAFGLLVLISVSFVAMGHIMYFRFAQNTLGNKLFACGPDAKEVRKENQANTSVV
I'd appreciate it if you marked entries Fulfilled when IC50 is lower than 1000 nM and Not fulfilled when it is not.

Sample answers from the record:
Compound	Class
O=C(NCc1ncccc1F)c1csc(C2CCN(CCc3nc4ccccc4[nH]3)C2)n1 (stereo not drawn) [Example 214]	Not fulfilled
O=C(Nc1ncccc1F)c1csc(CCNCc2nc3ccccc3[nH]2)n1 [Example 77]	Not fulfilled
O=C(NCc1ncccc1F)c1cncc(CCNCCc2nc3ccccc3[nH]2)c1 [compound 229]	Fulfilled
O=C(NCc1ncccc1F)c1csc(CCNc2nc3ccccc3[nH]2)n1 [Example 121]	Not fulfilled
O=C(NCCCCNCc1nc2ccccc2[nH]1)NCc1ncccc1F [compound 197]	Fulfilled

Threshold test, IC50 < 1000 nM: Cc1cnc(CNC(=O)c2csc(CCNCc3nc4ccccc4[nH]3)n2)c(C)c1 [Example 57]
Fulfilled

For this compound, is IC50 lower than 1000 nM? N#Cc1ccc(CNC(=O)c2csc(CCNCc3nc4ccccc4[nH]3)n2)cn1 [Example 56]
Fulfilled

Quick check: does O=C(NCc1ccccc1F)c1csc(CCNCc2nc3ccccc3[nH]2)n1 [Example 65] have IC50 under 1000 nM?
Fulfilled

Does the reported IC50 of the following compound sit strictly below 1000 nM? O=C(NCc1ccccc1)c1csc(CCNCc2nc3cccnc3[nH]2)n1 [Example 33]
Not fulfilled
